Taken from patent US10167272B2.

assay-system: human muscarinic M1 receptor (Homo sapiens, UniProt P11229)
Sequence (P11229 whole entry): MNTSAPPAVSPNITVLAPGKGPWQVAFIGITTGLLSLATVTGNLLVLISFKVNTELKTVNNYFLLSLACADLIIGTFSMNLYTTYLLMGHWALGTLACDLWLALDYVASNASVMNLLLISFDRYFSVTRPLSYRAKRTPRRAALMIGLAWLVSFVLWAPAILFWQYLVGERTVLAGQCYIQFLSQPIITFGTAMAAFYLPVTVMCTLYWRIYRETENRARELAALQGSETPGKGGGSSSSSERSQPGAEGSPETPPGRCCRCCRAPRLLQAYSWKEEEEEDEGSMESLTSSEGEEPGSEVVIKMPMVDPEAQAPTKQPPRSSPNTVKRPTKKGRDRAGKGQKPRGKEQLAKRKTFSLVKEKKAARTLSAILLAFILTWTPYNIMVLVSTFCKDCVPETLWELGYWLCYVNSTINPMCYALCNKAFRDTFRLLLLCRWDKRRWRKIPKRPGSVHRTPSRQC
experiment-description: Alphascreen Surefire phospho-ERK1/2 functional assay, M1
Assay type: cell-based
run-parameters: CHO, read-out: % Emax cf. ACh (M1), CHO cells stably expressing human M1; phospho-ERK1/2; relative to ACh
experimental-readout: Emax (%)

[[record]]
compound = "CCOC(=O)N1CCC2(CC(N3CCC(N(CC(F)(F)F)C4COC4)CC3)C2)C1 (single isomer, unassigned) [2-54 Isomer 2]"
obs_value = 106


A: CCCN(C(C)=O)C1CCN(C2CC3(CCN(C(=O)OCC)C3)C2)CC1 (single isomer, unassigned) [2-18 Isomer 2]
B: CCOC(=O)N1CCC2(CC(N3CCC(N(CC)C4COC4)CC3)C2)C1 (single isomer, unassigned) [2-53 Isomer 2]
I need your help: which of the pair A , B has higher Emax? Answer by quoting the chosen item's label.
A

###

assay-system: human muscarinic M3 receptor (Homo sapiens, UniProt P20309)
Construct: expressed in transfected cells
Sequence (P20309 whole entry): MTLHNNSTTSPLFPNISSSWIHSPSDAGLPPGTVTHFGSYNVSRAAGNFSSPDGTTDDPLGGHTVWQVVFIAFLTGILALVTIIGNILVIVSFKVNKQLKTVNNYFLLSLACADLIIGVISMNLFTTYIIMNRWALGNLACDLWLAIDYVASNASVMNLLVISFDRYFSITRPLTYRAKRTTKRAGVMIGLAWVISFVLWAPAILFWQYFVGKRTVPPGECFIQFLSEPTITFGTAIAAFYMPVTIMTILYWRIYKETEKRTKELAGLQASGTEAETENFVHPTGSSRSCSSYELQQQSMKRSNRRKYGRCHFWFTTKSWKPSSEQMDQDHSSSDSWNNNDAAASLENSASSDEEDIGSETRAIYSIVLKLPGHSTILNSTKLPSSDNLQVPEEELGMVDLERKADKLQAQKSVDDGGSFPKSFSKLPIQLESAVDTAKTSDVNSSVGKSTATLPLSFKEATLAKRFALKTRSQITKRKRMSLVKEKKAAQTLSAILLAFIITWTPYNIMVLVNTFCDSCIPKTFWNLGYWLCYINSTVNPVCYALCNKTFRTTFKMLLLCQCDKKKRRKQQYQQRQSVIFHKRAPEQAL
experiment-description: Alphascreen Surefire phospho-ERK1/2 functional assay, M3
Assay type: cell-based
run-parameters: CHO, read-out: % Emax cf. ACh (M3), CHO cells stably expressing human M3; phospho-ERK1/2; relative to ACh
Procedure: ERK1/2 phosphorylation is a downstream consequence of both Gq/11 and Gi/o protein coupled receptor activation, making it highly suitable for the assessment of M1, M3 (Gq/11 coupled) and M2, M4 receptors (Gi/o coupled), rather than using different assay formats for different receptor subtypes. CHO cells stably expressing the human muscarinic M1, M2, M3 or M4 receptor were plated (25K/well) onto 96-well tissue culture plates in MEM-alpha+10% dialysed FBS. […]
experimental-readout: Emax (%)

[[record]]
compound = "CCOC(=O)N1CC2(CCC(N3CCC(N(CC)C(C)=O)CC3)C2)C1 (single isomer, unassigned) [3-3 Isomer 2]"
obs_value = 21

[[record]]
compound = "CCOC(=O)N1CCC2(CC(N3CCC(C(C)(C)N(CC)C(C)=O)CC3)C2)C1 (single isomer, unassigned) [2-64 Isomer 2]"
obs_value = 4

[[record]]
compound = "CCOC(=O)N1CCC2(CC(N3CCC(N(C(=O)C(F)(F)F)C4CC4)CC3)C2)C1 (single isomer, unassigned) [2-4 Isomer 2]"
obs_value = 9


a: CCOC(=O)N1CCC2(CC(N3CCC(N(CC(C)C)C(C)=O)CC3)C2)C1 (single isomer, unassigned) [2-19 Isomer 2]
b: CCOC(=O)N1CC2(CCC(N3CCC(N(C(C)=O)C4CC4)CC3)C2)C1 (racemic) [3-1 Racemic]
Looking at recorded values for Emax, does a or b come in lower? Answer by quoting the chosen item's label.
b

a: CCOC(=O)N1CCC2(CC(N3CCC(N(C(=O)OC)C4COC4)CC3)C2)C1 (single isomer, unassigned) [2-47 Isomer 2]
b: CCOC(=O)N1CCC2(CC(N3CCC(OC(C)c4ccccc4)CC3)C2)C1 (single isomer, unassigned) [2-66 Isomer 2]
Looking at recorded values for Emax, does a or b come in lower? Answer by quoting the chosen item's label.
b

I: CCOC(=O)N1CCC2(CC(N3CCC(N(CC)Cc4cnco4)CC3)C2)C1 (single isomer, unassigned) [2-60 Isomer 2]
II: CCOC(=O)N1CCC2(CC(N3CCC(N(Cc4cnco4)CC(F)(F)F)CC3)C2)C1 (single isomer, unassigned) [2-62 Isomer 2]
Looking at recorded values for Emax, does I or II come in lower? Answer by quoting the chosen item's label.
II
(II: 11%, I: 56%)

1: CCOC(=O)N1CCC2(CC(N3CCC(N(C(C)=O)C4CCC4)CC3)C2)C1 (single isomer, unassigned) [2-6 Isomer 2]
2: CCOC(=O)N1CCC2(CC(N3CCC(N(CC)C(=O)OC)CC3)C2)C1 (single isomer, unassigned) [2-39 Isomer 2]
I need your help: which of the pair 1 , 2 has higher Emax? Answer by quoting the chosen item's label.
2
(2: 25%, 1: 14%)
